The origin of these recorded values is patent US20210388087A1.

# maps each entry to its KD ratio to GLS3000
biological target: T1, CD3 epsilon homodimer protein (UniProt P07766 23-126); assay: SPR, antibody over immobilised CD3e homodimer;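 also: SPR at 25 °C with CD3 epsilon homodimer amine-coupled to a CM4 sensor chip and antibody flowed over as analyte in HBS-EP+ running buffer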
T1 construct: also called CD3 (CD3 epsilon)
T1 sequence (P07766 23-126): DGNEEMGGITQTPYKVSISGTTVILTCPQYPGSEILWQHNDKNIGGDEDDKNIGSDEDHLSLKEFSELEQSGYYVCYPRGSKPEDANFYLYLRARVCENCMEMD
API doc: respond with a numeric literal and nothing else, no unit.

[
  {
    "binder": "CE115HA000/GLS3000 L33I (antibody, IgG1, name in Kabat numbering, V domains shown, one-arm IgG1) VH: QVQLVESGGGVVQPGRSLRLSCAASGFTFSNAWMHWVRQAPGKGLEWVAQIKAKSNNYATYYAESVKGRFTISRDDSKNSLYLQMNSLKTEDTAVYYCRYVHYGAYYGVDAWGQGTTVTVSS VL: DIVMTQSPLSLPVTPGEPASISCRSSQSLVHSNRNTYIHWYQQKPGQAPRLLIYKVSNRFSGVPDRFSGSGSGTDFTLKISRVEAEDVGVYYCGQGTQVPYTFGQGTKLEIK",
    "KD ratio to GLS3000": 0.86
  },
  {
    "binder": "CE115HA000/GLS3000 S26P (antibody, IgG1, name in Kabat numbering, V domains shown, one-arm IgG1) VH: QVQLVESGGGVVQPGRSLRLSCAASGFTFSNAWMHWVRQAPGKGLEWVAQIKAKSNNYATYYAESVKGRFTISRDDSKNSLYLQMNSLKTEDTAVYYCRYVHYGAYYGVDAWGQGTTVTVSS VL: DIVMTQSPLSLPVTPGEPASISCRSPQSLVHSNRNTYLHWYQQKPGQAPRLLIYKVSNRFSGVPDRFSGSGSGTDFTLKISRVEAEDVGVYYCGQGTQVPYTFGQGTKLEIK",
    "KD ratio to GLS3000": 0.67
  }
]

# ---- query binder ----
The binder listed as CE115HA000/GLS3000 Q90A (antibody, IgG1, name in Kabat numbering, V domains shown, one-arm IgG1) VH: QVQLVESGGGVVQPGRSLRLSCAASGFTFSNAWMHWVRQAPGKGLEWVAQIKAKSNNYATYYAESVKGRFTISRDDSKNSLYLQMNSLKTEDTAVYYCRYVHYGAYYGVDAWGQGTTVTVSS VL: DIVMTQSPLSLPVTPGEPASISCRSSQSLVHSNRNTYLHWYQQKPGQAPRLLIYKVSNRFSGVPDRFSGSGSGTDFTLKISRVEAEDVGVYYCGAGTQVPYTFGQGTKLEIK shows KD ratio to GLS3000 equal to 0.89
